# Run description: log P determination by HPLC on reverse-phase column (C 18), acidic range pH 2.3 (EEC Directive 79/831 Annex V. A8)
# Assay type: physicochemical
# Settings: reverse-phase HPLC column (C 18), pH 2.3, text of Example 1; pH 2.3; two values = mixture of diastereomers; read-out: log P (pH 2.3)
Readout label: chromatographic logP

Compound: CC(C)CC(C)C1CCCCC1N (centres unmarked) [2-(1,3-dimethylbutyl)cyclohexanamine]
chromatographic logP: 4.07
--
Compound: Cc1nc(C(F)F)c(C(=O)NC2CCCCC2C(C)CC(C)C)s1 (centres unmarked) [I-c-4]
chromatographic logP: 4.45

----------
# Run description: log P determination by HPLC on reverse-phase column (C 18), acidic range pH 2.3 (EEC Directive 79/831 Annex V. A8)
# Type: physicochemical
# Settings: reverse-phase HPLC column (C 18), pH 2.3, Table 1 (I-c); pH 2.3, HPLC C18, 43° C.; main diastereomer or, where several values in a cell, the individual diastereomers; read-out: logP
# Protocol: The stated log P values were determined in accordance with EEC Directive 79/831 Annex V. A8 by HPLC (High Performance Liquid Chromatography) on a reverse-phase column (C 18). Temperature: 43° C. Mobile phases for the determination in the acidic range (pH 2.3): 0.1% aqueous phosphoric acid, acetonitrile; linear gradient from 10% acetonitrile to 90% acetonitrile. […]
Readout label: chromatographic logP

Compound: Cc1nc(C(F)F)c(C(=O)NC2CCCCC2C(C)CC(C)C)s1 (centres unmarked) [I-c-4]
chromatographic logP: 4.45
//
Compound: CC(C)CC(C)C1CCCCC1NC(=O)c1nccnc1Cl (centres unmarked) [I-c-5]
chromatographic logP: 4.12
//
Compound: CC(C)CC(C)C1CCCCC1NC(=O)c1cn(C)nc1C(F)F (centres unmarked) [I-c-7]
chromatographic logP: 3.88
//
Compound: Cc1nn(C)c(F)c1C(=O)NC1CCCCC1C(C)CC(C)C (centres unmarked) [I-c-1]
chromatographic logP: 4.15
//
Compound: CC(C)CC(C)C1CCCCC1NC(=O)c1cn(C)cc1C(F)(F)F (centres unmarked) [I-c-11]
chromatographic logP: 4.45
//
Compound: CC(C)CC(C)C1CCCCC1NC(=O)c1cn(C)nc1C(F)(F)F (centres unmarked) [I-c-6]
chromatographic logP: 4.1
//
Compound: CC1=C(C(=O)NC2CCCCC2C(C)CC(C)C)SCCO1 (centres unmarked) [I-c-10]
chromatographic logP: 4.52
//
Compound: Cc1nn(C)cc1C(=O)NC1CCCCC1C(C)CC(C)C (centres unmarked) [I-c-14]
chromatographic logP: 3.18
//
Compound: Cc1ccsc1C(=O)NC1CCCCC1C(C)CC(C)C (centres unmarked) [I-c-9]
chromatographic logP: 4.73
//
Compound: Cc1nc(C(F)(F)F)c(C(=O)NC2CCCCC2C(C)CC(C)C)s1 (centres unmarked) [I-c-3]
chromatographic logP: 4.66
//
Compound: Cc1occc1C(=O)NC1CCCCC1C(C)CC(C)C (centres unmarked) [I-c-12]
chromatographic logP: 4.27

----------
# Run description: log P determination by HPLC on reverse-phase column (C 18), acidic range pH 2.3 (EEC Directive 79/831 Annex V. A8)
# Type: physicochemical
# Settings: Table 1 (I-c); pH 2.3, HPLC C18, 43° C.; main diastereomer or, where several values in a cell, the individual diastereomers
Readout label: logP

Compound: CC(C)CC(C)C1CCCCC1NC(=O)c1cn(C)nc1C(F)F (stereo not drawn)
Readout label: logP
Meas value: 4.28
//
Compound: CC(C)CC(C)C1CCCCC1NC(=O)c1cn(C)cc1C(F)(F)F (stereo not drawn)
Readout label: logP
Meas value: 4.83
//
Compound: CC(C)CC(C)C1CCCCC1NC(=O)c1cccnc1Cl (stereo not drawn)
Readout label: logP
Meas value: 4.04
